- ASSAYED TARGET: hCRTH2 (Homo sapiens, UniProt Q9Y5Y4)
- Sequence (Q9Y5Y4 whole entry): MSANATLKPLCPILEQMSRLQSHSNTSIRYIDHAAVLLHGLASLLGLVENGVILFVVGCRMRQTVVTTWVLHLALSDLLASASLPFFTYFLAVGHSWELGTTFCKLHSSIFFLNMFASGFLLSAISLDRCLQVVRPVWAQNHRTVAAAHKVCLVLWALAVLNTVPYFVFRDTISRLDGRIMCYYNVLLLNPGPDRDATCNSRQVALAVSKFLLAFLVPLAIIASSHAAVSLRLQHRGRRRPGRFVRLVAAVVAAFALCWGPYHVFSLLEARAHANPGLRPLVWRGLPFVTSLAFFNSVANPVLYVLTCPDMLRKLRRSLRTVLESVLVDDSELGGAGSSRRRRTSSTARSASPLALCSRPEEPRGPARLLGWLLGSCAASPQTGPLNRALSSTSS
- EXPERIMENT DESCRIPTION: biochemical
- EXPERIMENTAL SETUP: Ki (nM)

- MOLECULE: "O=C(O)CCC(=O)N(C1CC1)[C@@H]1c2ccccc2N(C(=O)OCc2ccc(F)cc2)[C@@H]2CCC[C@@H]21 (single isomer, unassigned)"
  Ki: "5.1 to 20 nM"

----------
Listed next: entries and their corresponding Ki.
- ASSAYED TARGET: hCRTH2 (Homo sapiens, UniProt Q9Y5Y4)
- Set-up: expressed in transfected cells; host or cells: HEK (human embryonic kidney) cells expressing hCRTH2
- EXPERIMENTAL SETUP: Radioligand Binding Assay B; Table B, rated A-D
READOUT: Ki

- COMPOUND: "O=C(O)CCC(=O)N(C1CC1)C1c2ccccc2N(C(=O)Oc2ccc(F)cc2)C2CCCC21 (racemic) [21B]"
  RESULT: "201 to 7500 nM"
- COMPOUND: "O=C(O)CCC(=O)N(C1CC1)C1c2ccccc2N(C(=O)OCc2ccccn2)C2CCCC21 (racemic) [21G]"
  RESULT: "20.1 to 200 nM"
- COMPOUND: "O=C(O)COC(=O)N(C1CC1)[C@@H]1c2ccccc2N(C(=O)c2ccc(OC(F)(F)F)cc2)[C@@H]2CCC[C@@H]21 (racemic)"
  RESULT: "5.1 to 20 nM"
- COMPOUND: "COC(=O)CCC(=O)N(C1CC1)C1c2ccccc2N(C(=O)c2cc3ccccc3n2C)C2CCCC21 (racemic) [14N]"
  RESULT: "201 to 7500 nM"
- COMPOUND: "COC(=O)CCC(=O)N(C1CC1)C1c2ccccc2N(C(=O)c2ccc(OC(F)(F)F)cc2)C2CCC21 (racemic)"
  RESULT: "20.1 to 200 nM"
- COMPOUND: "CCN(C(=O)CCC(=O)O)C1c2ccccc2N(C(=O)c2ccc(OC(F)(F)F)cc2)C2CCCC12 (racemic) [13C]"
  RESULT: "5.1 to 20 nM"
- COMPOUND: "O=C(O)CCC(=O)N(c1ccccc1)C1c2ccccc2N(C(=O)c2ccccc2)C2CCCC21 (racemic) [12E]"
  RESULT: "5.1 to 20 nM"
- COMPOUND: "COC(=O)CCC(=O)N(C1CC1)C1c2ccc(F)cc2N(C(=O)c2ccccc2)C2CCCC21 (racemic) [16C]"
  RESULT: "20.1 to 200 nM"
- COMPOUND: "COc1ccc(COC(=O)N2c3ccccc3C(N(C(=O)CCC(=O)O)C3CC3)C3CCCC32)cc1 (racemic) [21E]"
  RESULT: "20.1 to 200 nM"
- COMPOUND: "O=C(c1ccccc1)N1c2ccccc2[C@@H](N(C(=O)OCCO)C2CC2)[C@H]2CCC[C@H]21 (racemic)"
  RESULT: "201 to 7500 nM"
- COMPOUND: "O=C(O)CCC(=O)N(C1CC1)C1c2ccc(F)cc2N(C(=O)c2ccc(Oc3ccccc3)cc2)C2CCCC21 (racemic) [16E]"
  RESULT: "1 to 5 nM"
- COMPOUND: "O=C(O)COC(=O)N(C1CC1)[C@@H]1c2ccccc2N(C(=O)c2ccccc2)[C@@H]2CCC[C@@H]21 (racemic)"
  RESULT: "5.1 to 20 nM"
- COMPOUND: "COc1ccc(C(=O)N2c3ccccc3C(N(C(=O)CCC(=O)O)C3CC3)C3CCCC32)cc1 (racemic) [14L]"
  RESULT: "20.1 to 200 nM"
- COMPOUND: "O=C(O)CCC(=O)N(C1CC1)[C@@H]1c2ccc(F)cc2N(C(=O)OCc2ccccc2)[C@@H]2CCC[C@@H]21 (racemic)"
  RESULT: "1 to 5 nM"
- COMPOUND: "O=C(O)CCC(=O)N(C1CC1)C1c2ccccc2N(C(=O)c2ccc(Br)cc2)C2CCCC21 (racemic) [14F]"
  RESULT: "5.1 to 20 nM"
- COMPOUND: "O=C(O)CCC(=O)N(c1ccccc1)C1c2ccccc2N(C(=O)OCc2ccccc2)C2CCCC21 (racemic) [12C]"
  RESULT: "5.1 to 20 nM"
- COMPOUND: "O=C(O)CCC(=O)N(C1CC1)C1c2ccccc2N(C(=O)OCc2ccc3ccccc3c2)C2CCCC21 (racemic) [21C]"
  RESULT: "20.1 to 200 nM"
- COMPOUND: "CC(CC(=O)N(C1CC1)C1c2ccccc2N(C(=O)OCc2ccccc2)C2CCCC21)C(=O)O (racemic)"
  RESULT: "201 to 7500 nM"
- COMPOUND: "O=C(O)CCC(=O)N(C1CC1)C1c2ccccc2N(c2nnc(-c3ccc(F)cc3)o2)C2CCCC21 (racemic) [36B]"
  RESULT: "20.1 to 200 nM"
- COMPOUND: "O=C(O)CCC(=O)N(C1CC1)[C@@H]1c2ccccc2N(c2nnc(Cc3ccccc3)o2)[C@@H]2CCC[C@@H]21 (racemic)"
  RESULT: "20.1 to 200 nM"
- COMPOUND: "COC(=O)CCC(=O)N(c1ccccc1)[C@@H]1c2ccccc2N(C(=O)OCc2ccccc2)[C@@H]2CCC[C@@H]21 (racemic)"
  RESULT: "201 to 7500 nM"
- COMPOUND: "COC(=O)CCC(=O)N(C1CC1)C1c2ccc(F)cc2N(C(=O)OCc2ccccc2)C2CCCC21 (racemic)"
  RESULT: "20.1 to 200 nM"
- COMPOUND: "O=C(O)CCC(=O)N(C1CC1)C1c2ccccc2N(C(=O)c2ccc(OC(F)(F)F)cc2)C2CCCC21 (racemic) [14C]"
  RESULT: "5.1 to 20 nM"
- COMPOUND: "CC(OC(=O)N1c2ccccc2C(N(C(=O)CCC(=O)O)C2CC2)C2CCCC21)c1ccccc1 (racemic) [21F]"
  RESULT: "20.1 to 200 nM"
- COMPOUND: "CCN(C(=O)CCC(=O)O)C1c2ccccc2N(C(=O)c2cccnc2)C2CCCC12 (racemic) [13E]"
  RESULT: "20.1 to 200 nM"
- COMPOUND: "O=C(O)CCC(=O)N(C1CC1)C1c2ccccc2N(c2nnc(-c3ccccc3)o2)C2CCCC21 (racemic) [36A]"
  RESULT: "20.1 to 200 nM"
- COMPOUND: "O=C(O)CCC(=O)N(C1CC1)C1c2ccccc2N(C(=O)OCc2ccccc2F)C2CCCC21 (racemic) [21D]"
  RESULT: "20.1 to 200 nM"
- COMPOUND: "O=C(O)CCC(=O)N(C1CC1)C1c2ccccc2N(c2nnc(-c3ccc(OC(F)(F)F)cc3)o2)C2CCCC21 (racemic) [36C]"
  RESULT: "201 to 7500 nM"
